tested on: Pasteurella multocida 40G; assay: MIC, broth-dilution microtiter test (Table III); assay type: cell-based; set-up: unit not given here
Please mark true if the recorded minimal inhibitory concentration (MIC) is equal to or greater than 3, and false if it falls below.

In: Decide: minimal inhibitory concentration (MIC) of CCC1OC(=O)CC(O)C(C)C(OC2OC(C)C(O)C(N(C)C)C2O)C(CC=O)CC(C)C(=O)C=CC(C)=CC1COC(=O)C12CC3CC(CC(C3)C1)C2 (centres unmarked) [Compound 70] >= 3?
Out: true

In: Please indicate if the recorded minimal inhibitory concentration (MIC) for CCC1OC(=O)CC(O)C(C)C(OC2OC(C)C(O)C(N(C)C)C2OC(C)=O)C(CC=O)CC(C)C(=O)C=CC(C)=CC1COC(=O)COc1ccccc1 (centres unmarked) [Compound 35] meets or exceeds 3.
Out: true

In: Textbook exercise: given the entry CCC1OC(=O)CC(O)C(C)C(OC2OC(C)C(O)C(N(C)C)C2OC(C)=O)C(CC=O)CC(C)C(=O)C=CC(C)=CC1COC(=O)C(C)(C)C (centres unmarked) [Compound 67] , state whether its minimal inhibitory concentration (MIC) is greater than or equal to 3.
Out: true

In: Identify whether the reported minimal inhibitory concentration (MIC) of the following compound is 3 or greater: CCC1OC(=O)CC(O)C(C)C(OC2OC(C)C(O)C(N(C)C)C2OC(C)=O)C(CC=O)CC(C)C(=O)C=CC(C)=CC1COC(=O)Cc1ccc(Cl)cc1 (centres unmarked) [Compound 31]
Out: false

In: Reported minimal inhibitory concentration (MIC) reaches at least 3 for CCC1OC(=O)CC(O)C(C)C(OC2OC(C)C(O)C(N(C)C)C2O)C(CC=O)CC(C)C(=O)C=CC(C)=CC1COC(=O)Cc1ccc(Cl)cc1 (centres unmarked) [Compound 32, 23-O-(p-Chlorophenylacetyl)-OMT] ?
Out: false

In: Does minimal inhibitory concentration (MIC) meet or surpass 3 for CCC1OC(=O)CC(O)C(C)C(OC2OC(C)C(O)C(N(C)C)C2O)C(CC=O)CC(C)C(=O)C=CC(C)=CC1COC(=O)c1ccc2ccccc2c1 (centres unmarked) [Compound 59] ?
Out: true

In: Say whether CCC1OC(=O)CC(O)C(C)C(OC2OC(C)C(O)C(N(C)C)C2O)C(CC=O)CC(C)C(=O)C=CC(C)=CC1COC(=O)C(N)c1ccccc1 (centres unmarked) [Compound 57] shows minimal inhibitory concentration (MIC) of 3 or more.
Out: true

In: Kindly determine if minimal inhibitory concentration (MIC) recorded for CCC1OC(=O)CC(O)C(C)C(OC2OC(C)C(OC(C)=O)C(N(C)C)C2OC(C)=O)C(CC=O)CC(C)C(=O)C=CC(C)=CC1COC(=O)Cc1ccccc1 (centres unmarked) [Compound 27, 2',4'-Di-O-acetyl-23-O-phenylacetyl-OMT] is above or exactly 3.
Out: true

In: Given the entry CCC1OC(=O)CC(O)C(C)C(OC2OC(C)C(O)C(N(C)C)C2O)C(CC=O)CC(C)C(=O)C=CC(C)=CC1COC(=O)COc1ccccc1 (centres unmarked) [Compound 36, 23-O-Phenoxyacetyl-OMT] , answer whether its minimal inhibitory concentration (MIC) meets or surpasses 3.
Out: false

In: minimal inhibitory concentration (MIC) >= 3 for CCC1OC(=O)CC(O)C(C)C(OC2OC(C)C(OC(=O)CC(C)C)C(N(C)C)C2OC(C)=O)C(CC=O)CC(C)C(=O)C=CC(C)=CC1COC(=O)CC(C)C (centres unmarked) [Compound 50, 2'-O-Acetyl-4',23-di-O-isovaleryl-OMT] ?
Out: true

In: Could you tell me if the measured minimal inhibitory concentration (MIC) of CCC(=O)OCC1C=C(C)C=CC(=O)C(C)CC(CC=O)C(OC2OC(C)C(O)C(N(C)C)C2OC(C)=O)C(C)C(O)CC(=O)OC1CC (centres unmarked) [Compound 12, 2'-O-Acetyl-23-O-propionyl-OMT] reaches 3 or more?
Out: false

In: Check the entry CCC(=O)OCC1C=C(C)C=CC(=O)C(C)CC(CC=O)C(OC2OC(C)C(O)C(N(C)C)C2O)C(C)C(O)CC(=O)OC1CC (centres unmarked) [Compound 14, 23-O-Propionyl-OMT] : does minimal inhibitory concentration (MIC) equal or exceed 3?
Out: false

In: API: above_or_equal(metric=minimal inhibitory concentration (MIC), cutoff=3) for item CCC1OC(=O)CC(O)C(C)C(OC2OC(C)C(OC(C)=O)C(N(C)C)C2OC(C)=O)C(CC=O)CC(C)C(=O)C=CC(C)=CC1COC(=O)[C@H](O)c1ccccc1 (stereo partly drawn) [Compound 41, 2',4'-Di-O-acetyl-23-O-(D-mandeloyl)-OMT]
Out: true

In: API: above_or_equal(metric=minimal inhibitory concentration (MIC), cutoff=3) for item CCC1OC(=O)CC(O)C(C)C(OC2OC(C)C(O)C(N(C)C)C2OC(=O)Cc2ccccc2)C(CC=O)CC(C)C(=O)C=CC(C)=CC1CO (centres unmarked) [Compound 52, 2'-O-(Phenylacetyl)-OMT]
Out: true

In: For this compound, is measured minimal inhibitory concentration (MIC) 3 or higher? CCC1OC(=O)CC(O)C(C)C(OC2OC(C)C(O)C(N(C)C)C2O)C(CC=O)CC(C)C(=O)C=CC(C)=CC1COC(=O)NCc1ccccc1 (centres unmarked) [Compound 76]
Out: true

In: Decide: is the reported value of minimal inhibitory concentration (MIC) for CCC1OC(=O)CC(O)C(C)C(OC2OC(C)C(O)C(N(C)C)C2O)C(CC=O)CC(C)C(=O)C=CC(C)=CC1COC(=O)Cc1ccccc1 (centres unmarked) [Compound 29, 23-O-Phenylacetyl-OMT] equal to or greater than 3?
Out: false

In: Determine whether measured minimal inhibitory concentration (MIC) meets or exceeds 3 for CCC1OC(=O)CC(O)C(C)C(OC2OC(C)C(O)C(N(C)C)C2OC(C)=O)C(CC=O)CC(C)C(=O)C=CC(C)=CC1CO (centres unmarked) [Compound 1, 2'-O-Acetyl-OMT]
Out: true

In: Exam item: decide whether the reported minimal inhibitory concentration (MIC) for CCC1OC(=O)CC(O)C(C)C(OC2OC(C)C(O)C(N(C)C)C2OC(C)=O)C(CC=O)CC(C)C(=O)C=CC(C)=CC1COC(=O)NCc1ccccc1 (centres unmarked) [Compound 75] is at least 3.
Out: true

In: Kindly determine if minimal inhibitory concentration (MIC) recorded for CCC1OC(=O)CC(O)C(C)C(OC2OC(C)C(O)C(N(C)C)C2OC(=O)Cc2ccccc2)C(CC=O)CC(C)C(=O)C=CC(C)=CC1COC(=O)Cc1ccccc1 (centres unmarked) [Compound 53, 2',23-Di-O-Phenylacetyl-OMT] is above or exactly 3.
Out: false

In: Has CCC1OC(=O)CC(O)C(C)C(OC2OC(C)C(OC(=O)CC(C)C)C(N(C)C)C2OC(C)=O)C(CC=O)CC(C)C(=O)C=CC(C)=CC1CO (centres unmarked) [Compound 49, 2'-O-Acetyl-4'-O-isovaleryl-OMT] a recorded minimal inhibitory concentration (MIC) greater than or equal to 3?
Out: true

In: Determine whether measured minimal inhibitory concentration (MIC) meets or exceeds 3 for CCC1OC(=O)CC(O)C(C)C(OC2OC(C)C(O)C(N(C)C)C2OC(C)=O)C(CC=O)CC(C)C(=O)C=CC(C)=CC1COC(=O)CCCCc1ccccc1 (centres unmarked) [Compound 60]
Out: true

In: Please tell me: is the compound CCC(=O)OC1C(OC2C(CC=O)CC(C)C(=O)C=CC(C)=CC(CO)C(CC)OC(=O)CC(O)C2C)OC(C)C(O)C1N(C)C (centres unmarked) [Compound 2, 2'-O-Propionyl-OMT] at or over 3 in terms of minimal inhibitory concentration (MIC)?
Out: true

In: Item CCC1OC(=O)CC(O)C(C)C(OC2OC(C)C(OC(C)=O)C(N(C)C)C2OC(C)=O)C(CC=O)CC(C)C(=O)C=CC(C)=CC1COC(=O)[C@H](NC(=O)OC(C)(C)C)c1ccccc1 (some centres unmarked) [Compound 39] with minimal inhibitory concentration (MIC) of 3 or above?
Out: true
